As shown below, each of these compounds has a reported pIC50 value.
- target_under_test: human JAK3 (a.a. 781-1124) (Homo sapiens)
- Construct: JAK3 (a.a. 781-1124); His tag (N); made in house; host or cells: insect cells (baculovirus)
- Sequence (P52333 781-1124): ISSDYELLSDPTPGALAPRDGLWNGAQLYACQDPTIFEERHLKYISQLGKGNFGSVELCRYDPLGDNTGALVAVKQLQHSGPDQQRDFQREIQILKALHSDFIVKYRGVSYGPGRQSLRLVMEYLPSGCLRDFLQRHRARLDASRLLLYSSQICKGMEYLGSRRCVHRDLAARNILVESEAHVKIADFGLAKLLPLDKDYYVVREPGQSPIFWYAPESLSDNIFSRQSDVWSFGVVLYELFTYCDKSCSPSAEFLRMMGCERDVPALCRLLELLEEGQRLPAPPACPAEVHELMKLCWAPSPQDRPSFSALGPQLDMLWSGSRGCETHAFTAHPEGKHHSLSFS
- method: In vitro JAK kinase assay (HTRF, phosphorylation of a biotinylated peptide), JAK3
- Type: biochemical
pIC50: −log10 of the molar value. Structures can show the parent of a compound that is named as a salt.

Observe how each entry below is paired with its result.
> print(dat)
                                   compound                         target.under.test  quantity  experimental.value
1  O=C(Cc1nnn[nH]1)Nc1ccc2cc1CCc1cccc(c1)Nc1ncc(Cl)c(n1)N2 [Example C31, trifluoroacetate]  human JAK3 (a.a. 781-1124) (Homo sapiens)     pIC50                6.39
2  Cc1cnc2nc1Nc1ccc(NC(=O)CC3CCN(c4nncs4)CC3)c(c1)CCc1cccc(c1)N2 [Example C53, trifluoroacetate]  human JAK3 (a.a. 781-1124) (Homo sapiens)     pIC50              < 6.70

Lab note: next compound to report on.
pIC50 value, target or system human JAK3 (a.a. 781-1124) (Homo sapiens), for `COC(=O)c1ccc2cc1CCc1cncc(c1)Nc1ncc(Cl)c(n1)N2` : < 6.70
